target: Leucine aminopeptidase (Plasmodium falciparum (isolate 3D7)) (UniProt Q8IL11); test: P. falciparum M17LAP inhibitors, primary screen, biochemical, fluorogenic H-Leu-NHMec substrate, 1536-well (AID 1619); details: recombinant M17LAP, H-Leu-NHMec fluorogenic kinetic assay; at 30 µM; stronger effect = higher value;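 also: plate controls were full reaction with DMSO carrier for no effect and no enzyme background for full effect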
Sequence (Q8IL11 whole entry, looked up): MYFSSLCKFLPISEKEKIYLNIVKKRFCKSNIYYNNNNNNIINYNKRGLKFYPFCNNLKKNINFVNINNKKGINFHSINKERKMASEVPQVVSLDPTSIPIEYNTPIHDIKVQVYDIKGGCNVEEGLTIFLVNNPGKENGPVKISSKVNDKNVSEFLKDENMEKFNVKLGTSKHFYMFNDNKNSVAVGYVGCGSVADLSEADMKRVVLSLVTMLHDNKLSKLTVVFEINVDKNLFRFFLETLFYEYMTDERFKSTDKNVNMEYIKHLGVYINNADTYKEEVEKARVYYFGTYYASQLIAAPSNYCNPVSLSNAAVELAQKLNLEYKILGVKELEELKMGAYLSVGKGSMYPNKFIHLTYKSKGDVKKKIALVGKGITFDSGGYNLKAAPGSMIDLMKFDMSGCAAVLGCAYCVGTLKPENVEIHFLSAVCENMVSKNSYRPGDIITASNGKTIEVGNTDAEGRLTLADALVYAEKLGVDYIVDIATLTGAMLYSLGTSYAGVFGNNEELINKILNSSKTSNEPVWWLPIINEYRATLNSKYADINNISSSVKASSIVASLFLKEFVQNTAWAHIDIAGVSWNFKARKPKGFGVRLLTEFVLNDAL
In all, about 220,000 compounds went through this assay and about 830 (0.38%) were called active. The list is a sample of the results. Potency and affinity values are given separately.
METRIC_NAME: inhibition (%)
Record the value in %, omitting the unit from your answer.

Looking for the measured inhibition of N#CCCN1CCN(S(=O)(=O)c2ccc(S(=O)(=O)NC3CCCC3)cc2)CC1 , can you help?
5.82

Looking for the measured inhibition of O=C1OCCC1Sc1nc2ccccc2c(=O)n1-c1ccc(F)cc1 (stereo unspecified) , can you help?
-2.24

Looking for the measured inhibition of COc1ccc(NC(=O)CSc2ccccn2)c([N+](=O)[O-])c1 , can you help?
4.06

Looking for the measured inhibition of CC1(C)CC(=O)c2sc(NS(=O)(=O)c3ccc(Br)cc3)nc2C1 , can you help?
18.8

Looking for the measured inhibition of CC(C)=NOc1nc(N2CCOCC2)nc(N2CCOCC2)n1 , can you help?
-6.17

Looking for the measured inhibition of C/C(=N/NC(=O)CC(=O)N/N=C(\C)c1ccc([N+](=O)[O-])cc1)c1ccc([N+](=O)[O-])cc1 , can you help?
9.49

Looking for the measured inhibition of CCc1nnc(NS(=O)(=O)c2ccc(N3C(=O)c4ccc(C(=O)O)cc4C3=O)cc2)s1 , can you help?
3.4

Looking for the measured inhibition of CCOc1ccc(-n2c(Cc3cc(=O)[nH]c(=O)[nH]3)nnc2SCc2cccnc2)cc1 , can you help?
6.43

Looking for the measured inhibition of Cc1[nH]n(-c2ccccc2)c(=O)c1C=Nc1ccc(S(=O)(=O)Nc2nccs2)cc1 , can you help?
3.82

Looking for the measured inhibition of CC(=O)C1=C(O)C(=O)N(c2ccc(Br)cn2)C1c1ccc(F)cc1 (stereo unspecified) , can you help?
20.5

Looking for the measured inhibition of C/C(=N\NC(=O)CC1N=C(Cc2ccccc2)NNC1=O)c1ccccc1 (stereo unspecified) , can you help?
1.8

Looking for the measured inhibition of CC(C)(C)C(=O)Nc1cccc(-c2ncon2)c1 , can you help?
1.81

Looking for the measured inhibition of Cc1nc2ccccc2c2c1C(=O)N(C1CCCCCCC1)C2=O , can you help?
-2.77

Looking for the measured inhibition of CC(=O)Nc1ccccc1NC(=O)C/C(C)=N/NC(=O)c1ccncc1 , can you help?
7.62

Looking for the measured inhibition of COc1cccc(/C=C2/NC(=O)NC2=O)c1OCC(=O)Nc1ccccc1 , can you help?
1.46

Looking for the measured inhibition of CCc1nnc(NS(=O)(=O)c2ccc(N=Cc3c(C)[nH]n(-c4ccc(Cl)cc4)c3=O)cc2)s1 , can you help?
45.4

Looking for the measured inhibition of CSc1nc(C)cc(SCC(=O)N/N=C/c2ccccc2)n1 , can you help?
-5.92

Looking for the measured inhibition of COc1ccc(/C=N/NC(=O)CC(=O)N/N=C/c2ccc(OC)cc2)cc1 , can you help?
14.7

Looking for the measured inhibition of C/C(=N\NC(=O)CCc1c(C)n[nH]c1C)c1ccc([N+](=O)[O-])cc1 , can you help?
6.88

Looking for the measured inhibition of O=C(O)c1ccc(S(=O)(=O)Nc2ccc(O)c(Sc3nc4ccccc4s3)c2)cc1 , can you help?
40.7

Looking for the measured inhibition of CCOc1ccc(NC(=O)Cc2cccc3ccccc23)c([N+](=O)[O-])c1 , can you help?
33.7
